- Tested on: C. albicans NCPF 3281
- experiment-notes: microbe, parasite or virus in culture
- Assay type: cell-based
- measurement-context: NCPF 3281, 20 h
Where a SMILES comes first, the peptide text is derived from it.
Catalogue of Modal MIC50 readings, one per entry.

# compound, observable, value
measured = [
    ("CC(C)[C@H](NC(=O)CNC(=O)[C@H](CCCNC(=N)N)NC(=O)[C@H](CCCNC(=N)N)NC(=O)[C@H](CS)NC(=O)[C@@H](NC(=O)[C@H](CS)NC(=O)[C@@H](N)CCCNC(=N)N)C(C)C)C(=O)N[C@@H](CS)C(=O)N[C@@H](CCCNC(=N)N)C(=O)N[C@@H](CS)C(=O)N[C@H](C(=O)N[C@@H](CS)C(=O)N[C@@H](CCCNC(=N)N)C(=O)N[C@@H](CCCNC(=N)N)C(N)=O)C(C)C [BTD15a] (H-RCVCRRGVCRCVCRR-NH2; N-terminus assumed)", "Modal MIC50", "17.5 µM"),
    ("CC[C@H](C)[C@H](NC(=O)[C@H](CCCCN)NC(=O)CNC(=O)[C@@H](N)CC(C)C)C(=O)N[C@@H](C)C(=O)N[C@@H](CCCCN)C(=O)N[C@H](C(=O)NCC(=O)N[C@@H](CC(C)C)C(=O)N[C@@H](CCCCN)C(N)=O)C(C)C [XPF10a] (H-LGKIAKVGLK-NH2)", "Modal MIC50", "> 120.6 µM"),
]

Consider now this further compound.
**Query** Which Modal MIC50 reading was recorded for the compound CC(C)C[C@H](NC(=O)CNC(=O)[C@H](Cc1ccccc1)NC(=O)[C@H](CCCCN)NC(=O)[C@H](Cc1ccccc1)NC(=O)[C@H](C)NC(=O)[C@@H](N)CCCCN)C(=O)N[C@@H](CCCCN)C(=O)N[C@H](C(=O)N[C@H](C(=O)NCC(=O)N[C@@H](CCCCN)C(N)=O)C(C)C)[C@@H](C)O [CPF-MW-12a] (H-KAFKFGLKTVGK-NH2) ?
**Result** > 95.5 µM
